Consider the following binders and their measured Kd readings.
# target_desc: T1, soluble human CD3 epsilon chain (human, UniProt P07766 23-126)
# T1 construct: also called CD3ε
# assay_notes: SPR

Known results for binders:
INSERT INTO results (binder, test_result) VALUES
  ('TR01H040-E22Hh/none-Hi-Kn010G3/L0240-k0 (antibody, V domains shown, one-arm) VH: QVQLVESGGGLVQPGRSLRLSCAASGFTFSNAWMHWVRQAPGKGLEWVAQIKDKSQNYATYYAESVKGRFTISRADSKNSIYLQMNSLKTEDTAVYYCRYVHYSASYGVDAWGQGTTVTVSS VL: DIVMTQSPLSLPVTPGEPASISCRSSESPVHSNRNTYLHWYQQKPGQAPRLLIYKVSNRFSGVPDRFSGSGSGTDFTLKISRVEAEDVGVYYCYQGTQVPYTFGQGTKLEIK', '2.17 nM'),
  ('TR01H033-E22Hh/none-Hi-Kn010G3/L0000-k0 (antibody, V domains shown, one-arm) VH: QVQLVESGGGLVQPGRSLRLSCAASGFTFSNAWMHWVRQAPGKGLEWVAQIKSKSQNYATYYAESVKGRFTISRADSKNSIYLQMNSLKTEDTAVYYCRYVHYSASYGVDYWGQGTTVTVSS VL: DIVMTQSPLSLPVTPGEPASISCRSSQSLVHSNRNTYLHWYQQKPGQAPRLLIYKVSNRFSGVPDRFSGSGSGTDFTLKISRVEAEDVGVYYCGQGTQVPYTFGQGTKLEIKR', '48.8 nM'),
  ('TR01H040-E22Hh/none-Hi-Kn010G3/L0237-k0 (antibody, V domains shown, one-arm) VH: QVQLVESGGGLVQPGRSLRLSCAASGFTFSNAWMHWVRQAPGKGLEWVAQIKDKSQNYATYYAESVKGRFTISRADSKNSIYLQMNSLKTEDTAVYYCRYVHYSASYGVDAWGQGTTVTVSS VL: DIVMTQSPLSLPVTPGEPASISCRSSQEPVHSNRNTYIHWYQQKPGQAPRLLIYKVSNRFSGVPDRFSGSGSGTDFTLKISRVEAEDVGVYYCYQGTQVPYTFGQGTKLEIK', '10.2 nM'),
  ('TR01H040-E22Hh/none-Hi-Kn010G3/L0243-k0 (antibody, V domains shown, one-arm) VH: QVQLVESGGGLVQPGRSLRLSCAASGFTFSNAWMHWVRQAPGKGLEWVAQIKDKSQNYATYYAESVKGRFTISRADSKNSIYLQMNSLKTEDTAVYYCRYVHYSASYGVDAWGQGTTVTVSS VL: DIVMTQSPLSLPVTPGEPASISCRSSEPPVHSNRNTYLHWYQQKPGQAPRLLIYKVSNRFRGVPDRFSGSGSGTDFTLKISRVEAEDVGVYYCGQGTQVPYTFGQGTKLEIK', '24.6 nM');

# ---- query binder ----
Qu. Reported Kd for TR01H040-E22Hh/none-Hi-Kn010G3/L0234-k0 (antibody, V domains shown, one-arm) VH: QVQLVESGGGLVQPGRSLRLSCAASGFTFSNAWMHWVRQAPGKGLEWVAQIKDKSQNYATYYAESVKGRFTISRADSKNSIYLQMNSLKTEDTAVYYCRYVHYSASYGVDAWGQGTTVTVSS VL: DIVMTQSPLSLPVTPGEPASISCRSSQEPVHSNRNTYLHWYQQKPGQAPRLLIYKVSNRFRGVPDRFSGSGSGTDFTLKISRVEAEDVGVYYCGQGTQVPYTFGQGTKLEIK : what is it?
Ans. 24 nM
